// provenance: paper PMC10914731

Please provide measured DC50 for the entries that follow.
target: His6-tagged ClpC1-NTD substrate, M. smegmatis ClpC1P1P2 (UniProt A0R574+P9WPC9); assay: biochemical; format: biochemical; conditions: Msm; mean of the measurements; read-out: DC50, Mean
Sequence (P9WPC9 1-156, looked up, natural form): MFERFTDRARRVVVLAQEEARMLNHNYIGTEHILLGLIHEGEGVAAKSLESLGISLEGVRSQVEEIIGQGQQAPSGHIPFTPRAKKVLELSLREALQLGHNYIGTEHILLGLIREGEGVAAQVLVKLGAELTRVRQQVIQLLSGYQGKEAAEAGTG
Sequence (A0R574 whole entry): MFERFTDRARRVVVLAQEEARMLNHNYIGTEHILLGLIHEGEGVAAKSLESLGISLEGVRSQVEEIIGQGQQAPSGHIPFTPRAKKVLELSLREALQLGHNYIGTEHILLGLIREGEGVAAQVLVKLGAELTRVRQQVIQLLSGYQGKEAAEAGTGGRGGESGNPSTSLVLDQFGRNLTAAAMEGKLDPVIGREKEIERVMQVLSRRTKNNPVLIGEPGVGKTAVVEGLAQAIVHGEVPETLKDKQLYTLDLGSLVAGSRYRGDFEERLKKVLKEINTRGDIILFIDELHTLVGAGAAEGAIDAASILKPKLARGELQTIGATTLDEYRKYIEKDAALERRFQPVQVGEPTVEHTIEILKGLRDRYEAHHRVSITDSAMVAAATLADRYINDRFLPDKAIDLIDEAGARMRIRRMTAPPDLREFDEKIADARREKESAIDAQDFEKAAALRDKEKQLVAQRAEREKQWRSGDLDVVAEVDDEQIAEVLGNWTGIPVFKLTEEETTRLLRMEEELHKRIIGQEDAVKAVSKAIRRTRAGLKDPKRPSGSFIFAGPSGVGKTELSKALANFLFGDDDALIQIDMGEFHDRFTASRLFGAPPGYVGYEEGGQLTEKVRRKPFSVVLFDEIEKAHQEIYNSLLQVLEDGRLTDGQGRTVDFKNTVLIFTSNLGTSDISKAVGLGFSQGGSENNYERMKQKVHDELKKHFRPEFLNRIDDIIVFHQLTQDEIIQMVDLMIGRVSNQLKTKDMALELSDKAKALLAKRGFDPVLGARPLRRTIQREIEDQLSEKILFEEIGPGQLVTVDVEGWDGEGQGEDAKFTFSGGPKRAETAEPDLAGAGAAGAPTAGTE
*1 amine or outer side, *2 acyl side, *3 side chain or, on linkers, in order; H or OH if unused. Where a SMILES comes first, the peptide text is derived from it. [ ]: non-standard residue; d: D form. Trp(1-(1,1-Me2-allyl)) = C=CC(C)(C)n1cc(C[C@H](N)C(=O)O)c2ccccc21; Ala(3R-Me,3-isobutenyl) = CC(C)=C[C@@H](C)[C@H](N)C(=O)O; X1 = C#CCn1cc(C[C@H](N[*:1])C(=O)[*:2])c2ccccc21; NMeLeu(5-OH,4R) = CN[C@@H](C[C@@H](C)CO)C(=O)O; Phe(βR-OMe) = CO[C@H](c1ccccc1)[C@H](N)C(=O)O; NMeL = CN[C@@H](CC(C)C)C(=O)O

Below: 4 compounds and their reported DC50.
CO[C@H](c1ccccc1)[C@@H]1NC(=O)[C@H](C)NC(=O)[C@H](C[C@@H](C)CO)N(C)C(=O)[C@H](Cc2cn(Cc3cn(CCCCCn4cc(Cn5cc(C[C@@H]6NC(=O)[C@H](C(C)C)NC(=O)[C@H](CC(C)C)N(C)C(=O)[C@H](C(C)C)NC(=O)[C@H]([C@H](OC)c7ccccc7)NC(=O)[C@H](C)NC(=O)[C@H](C[C@@H](C)CO)N(C)C6=O)c6ccccc65)nn4)nn3)c3ccccc23)NC(=O)[C@H](C(C)C)NC(=O)[C@H](CC(C)C)N(C)C(=O)[C@H](C(C)C)NC1=O [Compound 9] :: 8 µM
C#CCn1cc(C[C@@H]2NC(=O)[C@H](C(C)C)NC(=O)[C@H](CC(C)C)N(C)C(=O)[C@H](C(C)C)NC(=O)[C@H]([C@H](OC)c3ccccc3)NC(=O)[C@H](C)NC(=O)[C@H](C[C@@H](C)CO)N(C)C2=O)c2ccccc21 [Compound 5] (cyclo(A[Phe(βR-OMe)]V[NMeL]V[X1][NMeLeu(5-OH,4R)])) :: > 100 µM
CO[C@H](c1ccccc1)[C@@H]1NC(=O)[C@H](C)NC(=O)[C@H](C[C@@H](C)CO)N(C)C(=O)[C@H](Cc2cn(Cc3cn(CCCCCn4cc(Cn5cc(C[C@H]6C(=O)N(C)[C@@H](C[C@@H](C)CO)C(=O)N[C@@H](C)C(=O)N[C@@H]([C@H](OC)c7ccccc7)C(=O)N[C@@H](C(C)C)C(=O)N(C)[C@@H](CC(C)C)C(=O)N[C@@H](C(C)C)C(=O)N6C)c6ccccc65)nn4)nn3)c3ccccc23)N(C)C(=O)[C@H](C(C)C)NC(=O)[C@H](CC(C)C)N(C)C(=O)[C@H](C(C)C)NC1=O [SI-57] :: 23 µM
CO[C@H](c1ccccc1)[C@@H]1NC(=O)[C@H](C)NC(=O)[C@H](C[C@@H](C)CO)N(C)C(=O)[C@H](Cc2cn(Cc3cn(CCOCCn4cc(Cn5cc(C[C@@H]6NC(=O)[C@H](C(C)C)NC(=O)[C@H](CC(C)C)N(C)C(=O)[C@H](C(C)C)NC(=O)[C@H]([C@H](OC)c7ccccc7)NC(=O)[C@H](C)NC(=O)[C@H](C[C@@H](C)CO)N(C)C6=O)c6ccccc65)nn4)nn3)c3ccccc23)NC(=O)[C@H](C(C)C)NC(=O)[C@H](CC(C)C)N(C)C(=O)[C@H](C(C)C)NC1=O [Compound 6] :: 7.5 µM

Consider the compound shown here: C=CC(C)(C)n1cc(C[C@@H]2NC(=O)[C@H]([C@H](C)C=C(C)C)NC(=O)[C@H](CC(C)C)N(C)C(=O)[C@H](C(C)C)NC(=O)[C@H]([C@H](OC)c3ccccc3)NC(=O)[C@H](C)NC(=O)[C@H](C[C@@H](C)CO)N(C)C2=O)c2ccccc21 [dCymC] (cyclo([Trp(1-(1,1-Me2-allyl))][NMeLeu(5-OH,4R)]A[Phe(βR-OMe)]V[NMeL][Ala(3R-Me,3-isobutenyl)])) What is its recorded DC50?
> 100 µM
